Source: BigSolDB 2.1

- conditionSummary: in isopropanol, 313.15 K
propertyMeasured: solubility (mole fraction)
Please give only the number in your answer, with no unit.

Any idea what its solubility (mole fraction) is? The molecule is `C#C[C@]1(O)C=C[C@H]2[C@@H]3CCC4=CC(=O)CC[C@@H]4[C@H]3CC[C@@]21CC`
0.00648

----------
- conditionSummary: in n-butanol, 288.15 K
propertyMeasured: solubility (mole fraction)
Please give only the number in your answer, with no unit.

Any idea what its solubility (mole fraction) is? The molecule is `C#C[C@]1(O)C=C[C@H]2[C@@H]3CCC4=CC(=O)CC[C@@H]4[C@H]3CC[C@@]21CC`
0.00465

----------
- conditionSummary: in n-butanol, 298.15 K
propertyMeasured: solubility (mole fraction)
Please give only the number in your answer, with no unit.

Any idea what its solubility (mole fraction) is? The molecule is `C#C[C@]1(O)C=C[C@H]2[C@@H]3CCC4=CC(=O)CC[C@@H]4[C@H]3CC[C@@]21CC`
0.00642

----------
- conditionSummary: in isopropanol, 318.15 K
propertyMeasured: solubility (mole fraction)
Please give only the number in your answer, with no unit.

Any idea what its solubility (mole fraction) is? The compound is `C#C[C@]1(O)C=C[C@H]2[C@@H]3CCC4=CC(=O)CC[C@@H]4[C@H]3CC[C@@]21CC`
0.00809

----------
- conditionSummary: in n-propanol, 313.15 K
propertyMeasured: solubility (mole fraction)
Please give only the number in your answer, with no unit.

Any idea what its solubility (mole fraction) is? The compound is `C#C[C@]1(O)C=C[C@H]2[C@@H]3CCC4=CC(=O)CC[C@@H]4[C@H]3CC[C@@]21CC`
0.0117

----------
- conditionSummary: in n-propanol, 303.15 K
propertyMeasured: solubility (mole fraction)
Please give only the number in your answer, with no unit.

Any idea what its solubility (mole fraction) is? The compound is `C#C[C@]1(O)C=C[C@H]2[C@@H]3CCC4=CC(=O)CC[C@@H]4[C@H]3CC[C@@]21CC`
0.00817

----------
- conditionSummary: in acetonitrile, 293.15 K
propertyMeasured: solubility (mole fraction)
Please give only the number in your answer, with no unit.

Any idea what its solubility (mole fraction) is? The molecule is `C#C[C@]1(O)C=C[C@H]2[C@@H]3CCC4=CC(=O)CC[C@@H]4[C@H]3CC[C@@]21CC`
0.00358

----------
- conditionSummary: in n-butanol, 308.15 K
propertyMeasured: solubility (mole fraction)
Please give only the number in your answer, with no unit.

Any idea what its solubility (mole fraction) is? The molecule is `C#C[C@]1(O)C=C[C@H]2[C@@H]3CCC4=CC(=O)CC[C@@H]4[C@H]3CC[C@@]21CC`
0.00875

----------
- conditionSummary: in water, 308.15 K
propertyMeasured: solubility (mole fraction)
Please give only the number in your answer, with no unit.

Any idea what its solubility (mole fraction) is? The compound is `C#C[C@]1(O)C=C[C@H]2[C@@H]3CCC4=CC(=O)CC[C@@H]4[C@H]3CC[C@@]21CC`
1.42e-05

----------
- conditionSummary: in isopropanol, 293.15 K
propertyMeasured: solubility (mole fraction)
Please give only the number in your answer, with no unit.

Any idea what its solubility (mole fraction) is? The compound is `C#C[C@]1(O)C=C[C@H]2[C@@H]3CCC4=CC(=O)CC[C@@H]4[C@H]3CC[C@@]21CC`
0.0026
